The measurements presented in this section are drawn from ChEMBL document CHEMBL3885881.

Organism: Rattus norvegicus
assayInfo: DrugMatrix - Regimen: Daily Repeat
Format: toxicity, organism-based, Sprague-Dawley
Parameters: regimen Daily Repeat, gender Male, age 6-8 weeks
conditionsUsed: in vivo, po, 10 mg/kg, 120 h, tissue Plasma, route oral GAVAGE, dose level Low, time 5 day, […]
# key: entry, value: TOTAL BILIRUBIN
recordedEndpoint: TOTAL BILIRUBIN (mg/dL)

[[record]]
compound = "COc1ccc2cc([C@H](C)C(=O)O)ccc2c1"
reportedvalue = 0.17

[[record]]
compound = "COCCOC(=O)C1=C(C)NC(C)=C(C(=O)OC(C)C)C1c1cccc([N+](=O)[O-])c1 (centres undefined)"
reportedvalue = 0.23

[[record]]
compound = "CCOC(=O)C1=C(C)NC(C)=C(C(=O)OC)C1c1cccc([N+](=O)[O-])c1 (centres undefined)"
reportedvalue = 0.23

[[record]]
compound = "CC(C)CC(N(C)C)C1(c2ccc(Cl)cc2)CCC1 (centres undefined)"
reportedvalue = 0.17


---

# reported PHOSPHORUS; entries follow
Species: Rattus norvegicus
assayInfo: DrugMatrix - Regimen: Daily Repeat
Type: toxicity, organism-based, Sprague-Dawley
Design: regimen Daily Repeat, gender Male, age 6-8 weeks
conditionsUsed: in vivo, po, 0 mg/kg, 120 h, tissue Plasma, route oral GAVAGE, dose level Control, time 5 day, vehicle 100 % WATER
recordedEndpoint: PHOSPHORUS (mg/dL)

[[record]]
compound = "CC(C)C[C@H](NC(=O)[C@@H](O)[C@H](N)Cc1ccccc1)C(=O)O"
unitstring = "mg/dL"
reportedvalue = 11.83

[[record]]
compound = "ClC(Cl)Cl [CHLOROFORM]"
unitstring = "mg/dL"
reportedvalue = 10.38

[[record]]
compound = "Nc1ccn([C@@H]2CS[C@H](CO)O2)c(=O)n1"
unitstring = "mg/dL"
reportedvalue = 10.73

[[record]]
compound = "Cc1ncc([N+](=O)[O-])n1CCO"
unitstring = "mg/dL"
reportedvalue = 10.38

[[record]]
compound = "C[N+](C)(C)CCO.[Cl-] [CHOLINE CHLORIDE]"
unitstring = "mg/dL"
reportedvalue = 12.03

[[record]]
compound = "COc1cc2ncnc(Nc3ccc(F)c(Cl)c3)c2cc1OCCCN1CCOCC1"
unitstring = "mg/dL"
reportedvalue = 11.07

[[record]]
compound = "CC(C)(C)c1ccc(C(=O)CCCN2CCC(OC(c3ccccc3)c3ccccc3)CC2)cc1"
unitstring = "mg/dL"
reportedvalue = 11.35

[[record]]
compound = "C[C@@H]1C[C@@H]([C@H](O)CC2CC(=O)NC(=O)C2)C(=O)[C@@H](C)C1 [CYCLOHEXIMIDE]"
unitstring = "mg/dL"
reportedvalue = 11.52

[[record]]
compound = "COC(=O)C1=C(C)NC(C)=C(C(=O)OCC(C)C)C1c1ccccc1[N+](=O)[O-] (stereo not given)"
unitstring = "mg/dL"
reportedvalue = 10.78

[[record]]
compound = "CC(C)NCC(O)COc1cccc2ccccc12 (stereo not given)"
unitstring = "mg/dL"
reportedvalue = 11.72


---

Species: Rattus norvegicus
assayInfo: DrugMatrix - Regimen: Daily Repeat
Type: toxicity, organism-based, Sprague-Dawley
Parameters: regimen Daily Repeat, gender Male, age 6-8 weeks
conditionsUsed: in vivo, po, 0 mg/kg, 120 h, tissue Blood, route oral GAVAGE, dose level Control, time 5 day, vehicle .5 % CMC
Consider the following compounds and their measured MEAN CORPUSCULAR HEMOGLOBIN readings.
recordedEndpoint: MEAN CORPUSCULAR HEMOGLOBIN (pg)

[[record]]
compound = "CC[C@@H](CO)NCCN[C@@H](CC)CO [ETHAMBUTOL]"
reportedvalue = 24.37

[[record]]
compound = "CNC(=C[N+](=O)[O-])NCCSCc1ccc(CN(C)C)o1 [RANITIDINE]"
reportedvalue = 25.02

[[record]]
compound = "OC(CCN1CCCCC1)(c1ccccc1)C1CCCCC1 (stereo not given) [TRIHEXYPHENIDYL]"
reportedvalue = 24.97

[[record]]
compound = "C[C@](O)(CS(=O)(=O)c1ccc(F)cc1)C(=O)Nc1ccc(C#N)c(C(F)(F)F)c1 [(R)-BICALUTAMIDE]"
reportedvalue = 23.95

[[record]]
compound = "Clc1ccc2c(c1)C(N1CCNCC1)=Nc1ccccc1O2 [AMOXAPINE]"
reportedvalue = 25.23


---

Organism: Rattus norvegicus
assayInfo: DrugMatrix - Regimen: Daily Repeat
Assay type: toxicity, organism-based, Sprague-Dawley
Design: regimen Daily Repeat, gender Male, age 6-8 weeks
conditionsUsed: in vivo, iv, 0 mg/kg, 72 h, tissue Blood, dose level Control, time 3 day, vehicle 100 % SALINE
// boundary case: LYMPHOCYTE equal to 90% maps to no; strictly smaller maps to yes

[[record]]
molecule = "COc1cccc2c1C(=O)c1c(O)c3c(c(O)c1C2=O)C[C@@](O)(C(=O)CO)C[C@@H]3O[C@H]1C[C@H](N)[C@@H](O)[C@H](C)O1 [EPIRUBICIN]"
classassignment = "yes"

[[record]]
molecule = "CC(=O)N[C@@H]1[C@H](Oc2c3cc4cc2Oc2ccc(cc2Cl)[C@@H](O[C@@H]2O[C@@H](CO)[C@@H](O)[C@H](O)[C@@H]2NC(C)=O)[C@@H]2NC(=O)[C@H](NC(=O)[C@@H]4NC(=O)[C@H]4NC(=O)[C@@H](Cc5ccc(c(Cl)c5)O3)NC(=O)[C@H](N)c3ccc(O)c(c3)Oc3cc(O)cc4c3)c3ccc(O)c(c3)-c3c(O[C@H]4O[C@H](CO)[C@@H](O)[C@@H](O)[C@@H]4O)cc(O)cc3[C@@H](C(=O)O)NC2=O)O[C@@H](CO)[C@@H](O)[C@@H]1O"
classassignment = "yes"

[[record]]
molecule = "CCc1c2c(nc3ccc(OC(=O)N4CCC(N5CCCCC5)CC4)cc13)-c1cc3c(c(=O)n1C2)COC(=O)[C@]3(O)CC [IRINOTECAN]"
classassignment = "yes"

[[record]]
molecule = "COc1cccc2c1C(=O)c1c(O)c3c(c(O)c1C2=O)C[C@@](O)(C(=O)CO)C[C@@H]3O[C@H]1C[C@H](N)[C@H](O)[C@H](C)O1 [DOXORUBICIN]"
classassignment = "no"


---

Species: Rattus norvegicus
assayInfo: DrugMatrix - Regimen: Daily Repeat
Assay type: toxicity, organism-based, Sprague-Dawley
Design: regimen Daily Repeat, gender Male, age 6-8 weeks
conditionsUsed: in vivo, po, 0 mg/kg, 120 h, tissue Blood, route oral GAVAGE, dose level Control, time 5 day, vehicle .5 % CMC
recordedEndpoint: HEMOGLOBIN (G/DL)

[[record]]
compound = "C#C[C@]1(O)CC[C@H]2[C@@H]3CCc4cc(OC)ccc4[C@H]3CC[C@@]21C"
recordedendpoint = "HEMOGLOBIN"
reportedvalue = 14.27

[[record]]
compound = "CC(=O)CC(c1ccccc1)c1c(O)c2ccccc2oc1=O (stereo not drawn)"
recordedendpoint = "HEMOGLOBIN"
reportedvalue = 13.65

[[record]]
compound = "N=C(N)NC(=O)c1nc(Cl)c(N)nc1N [AMILORIDE]"
recordedendpoint = "HEMOGLOBIN"
reportedvalue = 14.7

[[record]]
compound = "O=[N+]([O-])c1ccccc1"
recordedendpoint = "HEMOGLOBIN"
reportedvalue = 13.78

[[record]]
compound = "O=C1CCC(N2C(=O)c3ccccc3C2=O)C(=O)N1 (stereo not drawn) [THALIDOMIDE]"
recordedendpoint = "HEMOGLOBIN"
reportedvalue = 13.98

[[record]]
compound = "CN1C(=O)COc2c(C(=O)NC3CN4CCC3CC4)cc(Cl)cc21 (stereo not drawn)"
recordedendpoint = "HEMOGLOBIN"
reportedvalue = 14.15

[[record]]
compound = "Clc1ccc2c(c1)C(N1CCNCC1)=Nc1ccccc1O2"
recordedendpoint = "HEMOGLOBIN"
reportedvalue = 14.27

[[record]]
compound = "C[C@]1(Cn2ccnn2)[C@H](C(=O)O)N2C(=O)C[C@H]2S1(=O)=O"
recordedendpoint = "HEMOGLOBIN"
reportedvalue = 13.4


---

Organism: Rattus norvegicus
assayInfo: DrugMatrix - Regimen: Daily Repeat
Assay type: toxicity, organism-based, Sprague-Dawley
Set-up: regimen Daily Repeat, gender Male, age 6-8 weeks
conditionsUsed: in vivo, po, 0 mg/kg, 120 h, tissue Plasma, route oral GAVAGE, dose level Control, time 5 day, vehicle 100 % WATER
Documented CREATININE across a set of compounds
recordedEndpoint: CREATININE (mg/dL)

[[record]]
compound = "CC(C)(C)c1ccc(C(=O)CCCN2CCC(OC(c3ccccc3)c3ccccc3)CC2)cc1 [EBASTINE]"
recordedendpoint = "CREATININE"
reportedvalue = 0.18

[[record]]
compound = "C[C@@H]1C[C@@H]([C@H](O)CC2CC(=O)NC(=O)C2)C(=O)[C@@H](C)C1 [CYCLOHEXIMIDE]"
recordedendpoint = "CREATININE"
reportedvalue = 0.25

[[record]]
compound = "ClC(Cl)Cl [CHLOROFORM]"
recordedendpoint = "CREATININE"
reportedvalue = 0.17

[[record]]
compound = "Cc1ncc([N+](=O)[O-])n1CCO [METRONIDAZOLE]"
recordedendpoint = "CREATININE"
reportedvalue = 0.17

[[record]]
compound = "C[N+](C)(C)CCO.[Cl-] [CHOLINE CHLORIDE]"
recordedendpoint = "CREATININE"
reportedvalue = 0.23

[[record]]
compound = "Nc1ccn([C@@H]2CS[C@H](CO)O2)c(=O)n1 [LAMIVUDINE]"
recordedendpoint = "CREATININE"
reportedvalue = 0.2

[[record]]
compound = "CC(C)C[C@H](NC(=O)[C@@H](O)[C@H](N)Cc1ccccc1)C(=O)O [UBENIMEX]"
recordedendpoint = "CREATININE"
reportedvalue = 0.21

[[record]]
compound = "CC(C)NCC(O)COc1cccc2ccccc12 (stereo not given) [PROPRANOLOL]"
recordedendpoint = "CREATININE"
reportedvalue = 0.26

[[record]]
compound = "COC(=O)C1=C(C)NC(C)=C(C(=O)OCC(C)C)C1c1ccccc1[N+](=O)[O-] (stereo not given) [NISOLDIPINE]"
recordedendpoint = "CREATININE"
reportedvalue = 0.13

[[record]]
compound = "COc1cc2ncnc(Nc3ccc(F)c(Cl)c3)c2cc1OCCCN1CCOCC1 [GEFITINIB]"
recordedendpoint = "CREATININE"
reportedvalue = 0.72

